Below, each entry is listed with its recorded IC50.
Target: ENPP1 (Homo sapiens (Human))
Sequence (P22413 whole entry, species assumed): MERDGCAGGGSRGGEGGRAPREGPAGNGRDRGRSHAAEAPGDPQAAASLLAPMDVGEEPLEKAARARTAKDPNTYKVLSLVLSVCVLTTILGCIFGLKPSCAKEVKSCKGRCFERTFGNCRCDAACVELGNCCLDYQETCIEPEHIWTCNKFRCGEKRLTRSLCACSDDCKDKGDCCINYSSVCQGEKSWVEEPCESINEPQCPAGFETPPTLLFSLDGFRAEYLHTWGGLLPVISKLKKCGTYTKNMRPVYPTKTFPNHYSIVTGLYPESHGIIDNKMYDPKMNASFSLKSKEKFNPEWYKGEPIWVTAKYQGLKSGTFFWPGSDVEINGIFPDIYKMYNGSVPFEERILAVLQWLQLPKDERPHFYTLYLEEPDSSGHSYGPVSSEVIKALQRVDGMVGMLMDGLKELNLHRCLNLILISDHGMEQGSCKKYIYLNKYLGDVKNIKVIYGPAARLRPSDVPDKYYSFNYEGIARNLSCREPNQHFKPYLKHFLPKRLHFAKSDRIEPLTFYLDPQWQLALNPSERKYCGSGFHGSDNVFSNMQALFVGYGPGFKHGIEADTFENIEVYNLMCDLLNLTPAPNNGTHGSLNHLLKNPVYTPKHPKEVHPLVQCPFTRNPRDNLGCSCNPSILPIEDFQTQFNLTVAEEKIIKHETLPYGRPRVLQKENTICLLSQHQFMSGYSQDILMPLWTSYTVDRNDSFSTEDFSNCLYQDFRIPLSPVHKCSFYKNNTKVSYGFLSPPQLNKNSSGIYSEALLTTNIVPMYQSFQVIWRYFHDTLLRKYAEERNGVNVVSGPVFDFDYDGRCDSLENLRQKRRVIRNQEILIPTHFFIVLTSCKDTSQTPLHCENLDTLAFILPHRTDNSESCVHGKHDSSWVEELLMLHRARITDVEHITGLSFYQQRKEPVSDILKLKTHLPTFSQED
Assay: ATP-Glo enzymatic assay (ATP substrate, AMP-Glo readout)
Type: biochemical
Settings: 25° C. for 60 min, 50 mM Tris pH 8.8

The cases that follow already have their IC50 on record.
[2H]C([2H])([2H])c1nc2cnc(C)c(-c3ccccc3)c2n1Cc1c(F)cc(S(N)(=O)=O)cc1F [Example 42]: < 1 nM
COc1ncc2nc(C)n(C(C)c3ccc(S(N)(=O)=O)cc3)c2c1-c1ccccc1 (stereo not shown) [Example 35]: 1 to 10 nM
COc1ncc2ccn(Cc3ccc(S(N)(=O)=O)cc3)c2c1-c1cnn(C(F)(F)F)c1 [Example 11]: 100 to 1000 nM

IC50 on ENPP1 (Homo sapiens (Human)) for Cc1ncc2nc(C)n(Cc3c(F)cc(S(N)(=O)=O)cc3F)c2c1-c1cccc(F)c1 [Example 45] is < 1 nM

###

Biological target: ENPP1 (Homo sapiens (Human))
Assay: cGAMP-Glo enzymatic assay (2′3′-cGAMP substrate, AMP-Glo readout)
Format: biochemical
Details: substrate 2′3′-cGAMP; 25° C. for 60 min; 50 mM Tris pH 8.8
Below, each entry is listed with its recorded IC50.

The cases that follow already have their IC50 on record.
COc1ncc2nc(C)n(Cc3ccc(S(N)(=O)=O)cc3F)c2c1-c1ccccc1 [Example 25]: < 1 nM
Cc1ncc2c(C)cn(Cc3c(F)cc(S(N)(=O)=O)cc3F)c2c1-c1ccn(C(F)(F)F)n1 [Example 18]: 10 to 100 nM
Cc1ncc2nc(C3CC3)n(Cc3ccc(S(N)(=O)=O)cn3)c2c1-c1ccccc1 [Example 53]: < 1 nM
Cc1ncc(-c2ccccc2)c2c1nc(C)n2Cc1ccc(S(N)(=O)=O)cc1 [Example 32]: < 1 nM

--- query ---
Form: compound = Cc1ncc2c(c1-c1ccccc1)n(Cc1ccc(S(N)(=O)=O)cn1)c(=O)n2C [Example 81] ; IC50 = < 1 nM
